# Test system: 898857-211-R-J1-PDC complex spheroids, growth % test/control
# method: Anticancer human tumor 898857-211-R-J1-PDC patient-derived melanoma cell line growth inhibition [RAS]; active = viability on the fitted dose curve at most 10% of control; inactive = the rest
# test.settings: second compound 0.003 µM; first compound 3.16 µM
Pick one and only one: active, inactive

Enquiry: # outcome recorded in this test, key = CC(=O)OC12COC1CC(O)C1(C)C(=O)C(O)C3=C(C)C(OC(=O)C(O)C(NC(=O)OC(C)(C)C)c4ccccc4)CC(O)(C(OC(=O)c4ccccc4)C21)C3(C)C (stereo not drawn) + CCn1c(-c2cccnc2C(C)OC)c2c3cc(ccc31)N1CCOC(CC(NC(=O)C(C(C)C)N(C)C(=O)C3(F)CCN(C(=O)C#CC(C)(C)N(C)C)CC3)C(=O)N3CCCC(N3)C(=O)OCC(C)(C)C2)C1
Return: inactive

Enquiry: Lookup Cc1nc(N2CCC3(CC2)COC(C)C3N)c(CO)nc1Sc1ccnc(N)c1Cl (stereo not drawn) + CCn1c(-c2cccnc2C(C)OC)c2c3cc(ccc31)N1CCOC(CC(NC(=O)C(C(C)C)N(C)C(=O)C3(F)CCN(C(=O)C#CC(C)(C)N(C)C)CC3)C(=O)N3CCCC(N3)C(=O)OCC(C)(C)C2)C1
Return: inactive

Enquiry: Now give it for NC1c2ccccc2OC12CCN(c1cnc3c(N4CCCc5ncccc54)n[nH]c3n1)CC2 (stereo not drawn) + CCn1c(-c2cc(N3CCN(C)CC3)cnc2C(C)OC)c2c3cc(ccc31)-c1csc(n1)CC(NC(=O)C1CC1C)C(=O)N1CCCC(N1)C(=O)OCC(C)(C)C2 too.
Return: inactive

Enquiry: And then CCC(CC)c1cc(NC2CCC(N)C2)n2nccc2n1 (stereo not drawn) + CCn1c(-c2cc(N3CCN(C)CC3)cnc2C(C)OC)c2c3cc(ccc31)-c1csc(n1)CC(NC(=O)C1CC1C)C(=O)N1CCCC(N1)C(=O)OCC(C)(C)C2 , what is it?
Return: active

Enquiry: Same read-out for CC1(O)CCCC1n1c(=O)c(C(F)F)cc2cnc(NC3CCN(S(C)(=O)=O)CC3)nc21 (stereo not drawn) + CCn1c(-c2cc(N3CCN(C)CC3)cnc2C(C)OC)c2c3cc(ccc31)-c1csc(n1)CC(NC(=O)C1CC1C)C(=O)N1CCCC(N1)C(=O)OCC(C)(C)C2 ?
Return: inactive

Enquiry: Let us now turn to Cc1nc(N2CCC3(CC2)COC(C)C3N)c(CO)nc1Sc1ccnc(N)c1Cl (stereo not drawn) + CCn1c(-c2cc(N3CCN(C)CC3)cnc2C(C)OC)c2c3cc(ccc31)-c1csc(n1)CC(NC(=O)C1CC1C)C(=O)N1CCCC(N1)C(=O)OCC(C)(C)C2
Return: inactive

Enquiry: Queued: CCC(CC)c1cc(NC2CCC(N)C2)n2nccc2n1 (stereo not drawn) + CCn1c(-c2cccnc2C(C)OC)c2c3cc(ccc31)N1CCOC(CC(NC(=O)C(C(C)C)N(C)C(=O)C3(F)CCN(C(=O)C#CC(C)(C)N(C)C)CC3)C(=O)N3CCCC(N3)C(=O)OCC(C)(C)C2)C1
Return: active

Enquiry: Same thing, different compound: C[C@@H](NC(=O)c1ncnc(N)c1Cl)c1ncc(C(=O)Nc2cc(C(F)(F)F)c(Cl)cn2)s1 + CCn1c(-c2cc(N3CCN(C)CC3)cnc2C(C)OC)c2c3cc(ccc31)-c1csc(n1)CC(NC(=O)C1CC1C)C(=O)N1CCCC(N1)C(=O)OCC(C)(C)C2
Return: inactive

====

# Test system: 898857-211-R-J1-PDC complex spheroids, growth % test/control
# method: Anticancer human tumor 898857-211-R-J1-PDC cell line growth inhibition [RAS];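 also: spheroids exposed to compound for seven days before readout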;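 as to viability, T/C: 100% = DMSO vehicle control wells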
# test.settings: second compound 0.3 µM; first compound 1 µM; stronger effect = lower value
measurement.kind: viability, T/C (%)
Just the number please, in %, no unit attached.

Enquiry: Observed viability, T/C on 898857-211-R-J1-PDC complex spheroids, growth % test/control for NC1c2ccccc2OC12CCN(c1cnc3c(N4CCCc5ncccc54)n[nH]c3n1)CC2 (stereo not drawn) + CCn1c(-c2cc(N3CCN(C)CC3)cnc2C(C)OC)c2c3cc(ccc31)-c1csc(n1)CC(NC(=O)C1CC1C)C(=O)N1CCCC(N1)C(=O)OCC(C)(C)C2 , please.
Return: 98

Enquiry: Now this one: CCN1CCN(Cc2ccc(Nc3ncc(F)c(-c4cc(F)c5nc(C)n(C(C)C)c5c4)n3)nc2)CC1 + CCn1c(-c2cc(N3CCN(C)CC3)cnc2C(C)OC)c2c3cc(ccc31)-c1csc(n1)CC(NC(=O)C1CC1C)C(=O)N1CCCC(N1)C(=O)OCC(C)(C)C2
Return: 33.9

Enquiry: Also C=CC(=O)N1CCN(c2nc(OCC3CCCN3C)nc3c(F)c(-c4nc(N)cc(C)c4C(F)(F)F)c(Cl)cc23)C(C)C1 (stereo not drawn) + CCn1c(-c2cc(N3CCN(C)CC3)cnc2C(C)OC)c2c3cc(ccc31)-c1csc(n1)CC(NC(=O)C1CC1C)C(=O)N1CCCC(N1)C(=O)OCC(C)(C)C2 , if possible.
Return: 99.7

Enquiry: Would you mind doing C=CC(=O)Nc1cc(Nc2nccc(-c3cn(C)c4ccccc34)n2)c(OC)cc1N(C)CCN(C)C + CCn1c(-c2cccnc2C(C)OC)c2c3cc(ccc31)N1CCOC(CC(NC(=O)C(C(C)C)N(C)C(=O)C3(F)CCN(C(=O)C#CC(C)(C)N(C)C)CC3)C(=O)N3CCCC(N3)C(=O)OCC(C)(C)C2)C1 as well?
Return: 46.4

Enquiry: Can you check Cc1nc(N2CCC3(CC2)COC(C)C3N)c(CO)nc1Sc1ccnc(N)c1Cl (stereo not drawn) + CCn1c(-c2cccnc2C(C)OC)c2c3cc(ccc31)N1CCOC(CC(NC(=O)C(C(C)C)N(C)C(=O)C3(F)CCN(C(=O)C#CC(C)(C)N(C)C)CC3)C(=O)N3CCCC(N3)C(=O)OCC(C)(C)C2)C1 next?
Return: 76.9

Enquiry: Please do the same for Cc1nc(N2CCC3(CC2)COC(C)C3N)c(CO)nc1Sc1ccnc(N)c1Cl (stereo not drawn) + CCn1c(-c2cc(N3CCN(C)CC3)cnc2C(C)OC)c2c3cc(ccc31)-c1csc(n1)CC(NC(=O)C1CC1C)C(=O)N1CCCC(N1)C(=O)OCC(C)(C)C2 as well.
Return: 111

Enquiry: Another: CCC(CC)c1cc(NC2CCC(N)C2)n2nccc2n1 (stereo not drawn) + CCn1c(-c2cccnc2C(C)OC)c2c3cc(ccc31)N1CCOC(CC(NC(=O)C(C(C)C)N(C)C(=O)C3(F)CCN(C(=O)C#CC(C)(C)N(C)C)CC3)C(=O)N3CCCC(N3)C(=O)OCC(C)(C)C2)C1
Return: 22.7

Enquiry: Follow-up item: CC(C)NCC(C(=O)N1CCN(c2ncnc3c2C(C)CC3O)CC1)c1ccc(Cl)cc1 (stereo not drawn) + CCn1c(-c2cccnc2C(C)OC)c2c3cc(ccc31)N1CCOC(CC(NC(=O)C(C(C)C)N(C)C(=O)C3(F)CCN(C(=O)C#CC(C)(C)N(C)C)CC3)C(=O)N3CCCC(N3)C(=O)OCC(C)(C)C2)C1
Return: 55.9

====

# Tested on: 898857-211-R-J1-PDC complex spheroids, growth % test/control
# method: Anticancer human tumor 898857-211-R-J1-PDC cell line growth inhibition [RAS];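 also: spheroids exposed to compound for seven days before readout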
# test.settings: curve of first compound; second compound 0.01 µM
measurement.kind: IC50 (nM)
Express your answer in nM, writing the number without its unit.

Enquiry: Recorded IC50 for CC(C)n1nc(-c2ccc3oc(N)nc3c2)c2c(N)ncnc21 + C=CC(=O)N1CCN(c2nc(OCC3CCCN3C)nc3c(F)c(-c4nc(N)cc(C)c4C(F)(F)F)c(Cl)cc23)C(C)C1 , please?
Return: 33.6

Enquiry: Now the same for CC1(O)CCCC1n1c(=O)c(C(F)F)cc2cnc(NC3CCN(S(C)(=O)=O)CC3)nc21 (stereo not given) + C=CC(=O)N1CCN(c2nc(OCC3CCCN3C)nc3c(F)c(-c4nc(N)cc(C)c4C(F)(F)F)c(Cl)cc23)C(C)C1
Return: 300

Enquiry: Can you check C[C@@H](NC(=O)c1ncnc(N)c1Cl)c1ncc(C(=O)Nc2cc(C(F)(F)F)c(Cl)cn2)s1 + C=CC(=O)N1CCN(c2nc(OCC3CCCN3C)nc3c(F)c(-c4nc(N)cc(C)c4C(F)(F)F)c(Cl)cc23)C(C)C1 next?
Return: 5330

Enquiry: What about O=C(c1ccc(F)c(F)c1Nc1ccc(I)cc1F)N1CC(O)([C@@H]2CCCCN2)C1 + C=CC(=O)N1CCN(c2nc(OCC3CCCN3C)nc3c(F)c(-c4nc(N)cc(C)c4C(F)(F)F)c(Cl)cc23)C(C)C1 ?
Return: 3.43

====

# Test system: 898857-211-R-J1-PDC complex spheroids, growth % test/control
# method: Anticancer human tumor 898857-211-R-J1-PDC cell line growth inhibition [RAS];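 also: spheroids exposed to compound for seven days before readout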;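 as to viability, T/C: 100% = DMSO vehicle control wells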
# test.settings: second compound 0.0949 µM; first compound 0.01 µM; stronger effect = lower value
measurement.kind: viability, T/C

Enquiry: // query viability, T/C value for entry C=CC(=O)Nc1cc(Nc2nccc(-c3cn(C)c4ccccc34)n2)c(OC)cc1N(C)CCN(C)C + CCn1c(-c2cc(N3CCN(C)CC3)cnc2C(C)OC)c2c3cc(ccc31)-c1csc(n1)CC(NC(=O)C1CC1C)C(=O)N1CCCC(N1)C(=O)OCC(C)(C)C2
Return: 104%

Enquiry: What do we get for C=CC(=O)Nc1cc(Nc2nccc(-c3cn(C)c4ccccc34)n2)c(OC)cc1N(C)CCN(C)C + CCn1c(-c2cccnc2C(C)OC)c2c3cc(ccc31)N1CCOC(CC(NC(=O)C(C(C)C)N(C)C(=O)C3(F)CCN(C(=O)C#CC(C)(C)N(C)C)CC3)C(=O)N3CCCC(N3)C(=O)OCC(C)(C)C2)C1 ?
Return: 98.2%

Enquiry: Then O=C(c1ccc(F)c(F)c1Nc1ccc(I)cc1F)N1CC(O)([C@@H]2CCCCN2)C1 + CCn1c(-c2cccnc2C(C)OC)c2c3cc(ccc31)N1CCOC(CC(NC(=O)C(C(C)C)N(C)C(=O)C3(F)CCN(C(=O)C#CC(C)(C)N(C)C)CC3)C(=O)N3CCCC(N3)C(=O)OCC(C)(C)C2)C1 ?
Return: 35.4%

Enquiry: CC(C)n1nc(-c2ccc3oc(N)nc3c2)c2c(N)ncnc21 + CCn1c(-c2cccnc2C(C)OC)c2c3cc(ccc31)N1CCOC(CC(NC(=O)C(C(C)C)N(C)C(=O)C3(F)CCN(C(=O)C#CC(C)(C)N(C)C)CC3)C(=O)N3CCCC(N3)C(=O)OCC(C)(C)C2)C1 ?
Return: 55.6%

Enquiry: Next compound up: CCN1CCN(Cc2ccc(Nc3ncc(F)c(-c4cc(F)c5nc(C)n(C(C)C)c5c4)n3)nc2)CC1 + CCn1c(-c2cc(N3CCN(C)CC3)cnc2C(C)OC)c2c3cc(ccc31)-c1csc(n1)CC(NC(=O)C1CC1C)C(=O)N1CCCC(N1)C(=O)OCC(C)(C)C2
Return: 113%

Enquiry: Entry to check: O=C(c1ccc(F)c(F)c1Nc1ccc(I)cc1F)N1CC(O)([C@@H]2CCCCN2)C1 + CCn1c(-c2cc(N3CCN(C)CC3)cnc2C(C)OC)c2c3cc(ccc31)-c1csc(n1)CC(NC(=O)C1CC1C)C(=O)N1CCCC(N1)C(=O)OCC(C)(C)C2
Return: 20.2%
